Reported property: melting point

CC1CCC(Oc2cc(F)cc(C(=O)Nc3ccc(OCCN4CCOCC4)c4ccccc34)c2)C1 (stereo not drawn): 65 to 66 °C
O=C(Nc1ccc(Oc2ccnc(N3CCC(O)CC3)n2)c2ccccc12)c1cc(F)cc(N2CCOCC2)c1: 106 to 108 °C
CS(=O)(=O)c1nccc(Oc2ccc(NC(=O)c3cc(F)cc(N4CCOCC4)c3)c3ccccc23)n1: 173 to 175 °C
CS(=O)(=O)CCNc1nccc(Oc2ccc(NC(=O)c3cc(F)cc(N4CCCCC4)c3)c3ccccc23)n1: 102 to 104 °C
O=C(Nc1ccc(OCCN2CCCC2=O)c2ccccc12)c1cc(F)cc(N2CCOCC2)c1: 172 to 173 °C
O=C(Nc1ccc(Oc2ccnc(N3CCC4(CC3)OCCO4)n2)c2ccccc12)c1cc(F)cc(N2CCOCC2)c1: 115 to 117 °C
O=C(Nc1ccc(Oc2ccnc(NCCN3CCCC3)n2)c2ccccc12)c1cc(F)cc(N2CCOCC2)c1: 95 to 97 °C
CSc1nccc(Oc2ccc(NC(=O)c3cc(F)cc(N4CCC(C)CC4)c3)c3ccccc23)n1: 142 to 143 °C
CN(C)[C@@H]1CCN(c2nccc(Oc3ccc(NC(=O)c4cc(F)cc(N5CCCCC5)c4)c4ccccc34)n2)C1: 93 to 94 °C
CN(C)C1CCN(c2nccc(Oc3ccc(NC(=O)c4cc(F)cc(N5CCCCC5)c4)c4ccccc34)n2)C1 (stereo not drawn): 108 to 110 °C
O=C(Nc1ccc(OCCCN2CCC3(CC2)OCCO3)c2ccccc12)c1cc(F)cc(N2CCCCC2)c1: 70 to 72 °C
O=C(Nc1ccc(Oc2ccnc(NCC3CCCO3)n2)c2ccccc12)c1cc(F)cc(N2CCOCC2)c1 (stereo not drawn): 103 to 105 °C
CC1CCC(Nc2nccc(Oc3ccc(NC(=O)c4cc(F)cc(N5CCCCC5)c4)c4ccccc34)n2)CC1 (stereo not drawn): 101 to 102 °C
CC(C)CN(C)c1cc(F)cc(C(=O)Nc2ccc(OCCN3CCOCC3)c3ccccc23)c1: 126 to 128 °C
O=C(Nc1ccc(OCCCc2cccnc2)c2ccccc12)c1cc(F)cc(N2CCOCC2)c1: 64 to 66 °C
COCCN(C)c1nccc(Oc2ccc(NC(=O)c3cc(F)cc(N4CCOCC4)c3)c3ccccc23)n1: 96 to 98 °C
O=C(Nc1ccc(Oc2ccnc(NC3CCS(=O)(=O)C3)n2)c2ccccc12)c1cc(F)cc(N2CCOCC2)c1 (stereo not drawn): 150 to 151 °C
CN(C)[C@@H]1CCN(c2nccc(Oc3ccc(NC(=O)c4cc(F)cc(N5CCOCC5)c4)c4ccccc34)n2)C1: 115 to 117 °C
CCC1CCC(Oc2cc(F)cc(C(=O)Nc3ccc(OCCN4CCOCC4)c4ccccc34)c2)CC1 (stereo not drawn): 102 to 105 °C
O=C(Nc1ccc(Oc2ccnc(N3CCCC3)n2)c2ccccc12)c1cc(F)cc(N2CCOCC2)c1: 205 to 207 °C
COc1nccc(Oc2ccc(NC(=O)c3cc(F)cc(N4CCOCC4)c3)c3ccccc23)n1: 216 to 217 °C
Cc1ncsc1CCOc1ccc(NC(=O)c2cc(F)cc(N3CCOCC3)c2)c2ccccc12: 186 to 187 °C
O=C(Nc1ccc(OCc2ccoc2)c2ccccc12)c1cc(F)cc(N2CCCCC2)c1: 152 to 153 °C
O=C(Nc1ccc(Oc2ccnc(NCC3CC3)n2)c2ccccc12)c1cc(F)cc(N2CCCCC2)c1: 117 to 119 °C
O=C(Nc1ccc(Oc2ccnc(N3CCOCC3)n2)c2ccccc12)c1cc(F)cc(N2CCOCC2)c1: 104 to 106 °C
CN1CCC(Nc2nccc(Oc3ccc(NC(=O)c4cc(F)cc(N5CCOCC5)c4)c4ccccc34)n2)CC1: 128 to 129 °C
CC(C)(C)OC(=O)N1CCN(c2nccc(Oc3ccc(NC(=O)c4cc(F)cc(N5CCCCC5)c4)c4ccccc34)n2)CC1: 175 to 177 °C
